# Procedure text: Kinetic solubility of nanospray-dried ASDs in FaSSIF at 37° C.
# Assay type: physicochemical
# Condition summary: thermodynamic from solid, 180 min, read-out: Solubility (μg/mL) 180 min
# Method: 10 mL of FASSIF was added into 8 vials containing each ASD prepared before by nanospray drying, respectively, then the suspensions were shaken using a thermomixer at 37° C. under 100 rpm, 300 μL of suspensions were withdrawn at 15, 30, 45, 60, 90, 120 and 180 mins. The samples of suspensions were centrifuged in 96-well plates at 3000 rpm for 5 min. The supernatants were diluted with the diluent (ACN/water, 50/50) and analyzed by HPLC.
Measurement kind: solubility at 180 min (µg/mL)
Respond numerically; units are µg/mL and should not be typed.

// fetch solubility at 180 min given entry O=[N+]([O-])c1cn2c(n1)OC[C@@H](OCc1ccc(OC(F)(F)F)cc1)C2 [PA-824]
24.4
